src = patent US7470724B2

# METHOD_NOTES: Pro-drug cleavage by human PBMC extracts
# Format: in vitro ADME
# COND: cleavage rate per μg protein; 30 μM substrate, pH 6.5, 37° C., 10-120 minutes; disappearance of pro-drug by HPLC at 260 nm

COMPOUND	Human PBMC extract specific activity / pmol/min/µg
CCOC(=O)C(C)NP(=O)(/C=C/c1ccccc1Cn1cnc2c(=O)[nH]c(N)nc21)Oc1ccccc1 (stereo not shown) [Example 133-1]	4.9
CCOC(=O)C(C)NP(=O)(CCC(C)(C)CCn1cnc2c(=O)[nH]c(N)nc21)Oc1ccccc1 (stereo not shown) [Example 130-1]	3.48
CCOC(=O)C(C)NP(=O)(CCC(C)(C)CCn1cnc2c(=O)[nH]c(N)nc21)N[C@@H](C)C(=O)OCC (stereo partly shown) [Example 130-2]	0.65
CCOC(=O)C(C)NP(=O)(/C=C/c1ccccc1Cn1cnc2c(=O)[nH]c(N)nc21)N[C@@H](C)C(=O)OCC (stereo partly shown) [Example 133-2]	0.38
